FYI, the data here is from paper PMC6925334.

# Tested System: IRE1α* RNase (Homo sapiens, UniProt O75460)
# Sequence (O75460 465-977 limits assumed): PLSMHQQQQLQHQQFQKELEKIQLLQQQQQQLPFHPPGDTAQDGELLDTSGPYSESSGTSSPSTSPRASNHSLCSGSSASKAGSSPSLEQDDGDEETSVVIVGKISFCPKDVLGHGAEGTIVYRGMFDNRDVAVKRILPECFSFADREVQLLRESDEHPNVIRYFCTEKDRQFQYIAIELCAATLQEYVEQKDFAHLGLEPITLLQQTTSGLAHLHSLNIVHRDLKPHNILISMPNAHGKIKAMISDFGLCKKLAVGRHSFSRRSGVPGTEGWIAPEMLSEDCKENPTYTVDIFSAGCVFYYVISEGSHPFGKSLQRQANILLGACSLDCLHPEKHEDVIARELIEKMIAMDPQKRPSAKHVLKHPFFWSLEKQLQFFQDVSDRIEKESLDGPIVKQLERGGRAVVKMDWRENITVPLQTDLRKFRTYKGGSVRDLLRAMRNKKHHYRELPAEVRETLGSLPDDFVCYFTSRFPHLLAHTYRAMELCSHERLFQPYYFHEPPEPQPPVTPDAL
Readout: IC50 (nM)
Return type: number; implicit unit nM.

## Input Quick one: IC50 for `Cc1ccc2c(NS(=O)(=O)c3ccccc3Cl)cccc2c1Oc1ncccc1-c1ccnc(N[C@H]2CCCNC2)n1` ?
## Output 5
